Provenance of the data: patent US20070280945A1

I'd appreciate it if you could supply pIC50 values for the items below.
- Target of assay: T1, hIL-6R-hFc (human, UniProt P08887 20-358)
- T1 construct: also called dimeric hIL-6R; Dimer; not shown: human Fc (hFc)
- T1 sequence: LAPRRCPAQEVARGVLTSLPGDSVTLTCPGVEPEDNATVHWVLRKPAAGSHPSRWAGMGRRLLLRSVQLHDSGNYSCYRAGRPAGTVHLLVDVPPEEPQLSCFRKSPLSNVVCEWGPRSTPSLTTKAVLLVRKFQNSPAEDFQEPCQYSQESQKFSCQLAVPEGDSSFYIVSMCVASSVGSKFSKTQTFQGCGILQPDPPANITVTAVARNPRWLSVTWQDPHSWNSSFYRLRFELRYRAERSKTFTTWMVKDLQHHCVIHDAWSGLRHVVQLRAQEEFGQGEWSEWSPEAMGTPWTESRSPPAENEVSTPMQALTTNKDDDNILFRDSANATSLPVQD
- Test protocol: blocking ELISA: 100 pM hIL-6R-hFc premixed with varied antibody, free hIL-6R-hFc captured on hIL-6-coated plate
Answers are plain numbers, as −log10 of the molar value.

Illustrative cases are given below, each with its answer.
VQ8F11-21 (antibody, V domains shown, Human variable regions with mouse constant region; also called VQ8F11-21 mIgG2a) VH: EVQLVESGGGLVQPGRSLRLSCAASRFTFDDYAMHWVRQAPGKGLEWVSGISWNSGRIGYADSVKGRFTISRDNAENSLFLQMNGLRAEDTALYYCAKGRDSFDIWGQGTMVTVSS VL: DIQMTQSPSSVSASVGDRVTITCRASQGISSWLAWYQQKPGKAPKLLIYGASSLESGVPSRFSGSGSGTDFTLTISSLQPEDFASYYCQQANSFPYTFGQGTKLEIK | 9.92
VV9A6-11 (antibody, V domains shown, Human variable regions with mouse constant region) VH: QVQLVQSGAEVKKPGASVKVSCKASGYTFTSYGISWVRQAPGQGLEWMGWISAYNDDTNYAQKFQGRVTMTTDTSTSTAYMELRSLRSDDTAVYYCAREAQLVLYYYYGMDVWGQGTTVTVSS VL: EIVLTQSPATLSLSPGERATLSCRASQSVSSFLAWNQQKPGQAPRLLIYDASNRATGIPARFSGSGSGTDFTLTISSLEPEDFAVYYCQQRSNWPYIFGQGTKLEIK | 9.30

Then this binder:
Exercise: Any idea what its pIC50 is? The binder is VV7G4-10 (antibody, V domains shown, Human variable regions with mouse constant region) VH: QVQLVQSGAEVKKPGASVKVSCKASGYTFTSYGISWVRQAPGQGLEWMGWISAYNDDTNYAQKFQGRVTMTTDTSTSTAYMELRSLRSDDTAVYYCAREAQLVLYYYYGMDVWGQGTTVTVSS VL: EIVLTQSPATLSLSPGERATLSCRASQSVSSFLAWNQQKPGQAPRLLIYDASNRATGIPARFSGSGSGTDFTLTISSLEPEDFAVYYCQQRSNWPYIFGQGTKLEIK
Solution: 7.89
